Target: FBW7^ARG+pCycE (Homo sapiens, UniProt Q969H0, R505L)
Construct: GST (TEV site and flexible linker) (N, cleaved yes); made in house; host or cells: SF9 insect cells (baculovirus)
Sequence (Q969H0 64-707 R505L): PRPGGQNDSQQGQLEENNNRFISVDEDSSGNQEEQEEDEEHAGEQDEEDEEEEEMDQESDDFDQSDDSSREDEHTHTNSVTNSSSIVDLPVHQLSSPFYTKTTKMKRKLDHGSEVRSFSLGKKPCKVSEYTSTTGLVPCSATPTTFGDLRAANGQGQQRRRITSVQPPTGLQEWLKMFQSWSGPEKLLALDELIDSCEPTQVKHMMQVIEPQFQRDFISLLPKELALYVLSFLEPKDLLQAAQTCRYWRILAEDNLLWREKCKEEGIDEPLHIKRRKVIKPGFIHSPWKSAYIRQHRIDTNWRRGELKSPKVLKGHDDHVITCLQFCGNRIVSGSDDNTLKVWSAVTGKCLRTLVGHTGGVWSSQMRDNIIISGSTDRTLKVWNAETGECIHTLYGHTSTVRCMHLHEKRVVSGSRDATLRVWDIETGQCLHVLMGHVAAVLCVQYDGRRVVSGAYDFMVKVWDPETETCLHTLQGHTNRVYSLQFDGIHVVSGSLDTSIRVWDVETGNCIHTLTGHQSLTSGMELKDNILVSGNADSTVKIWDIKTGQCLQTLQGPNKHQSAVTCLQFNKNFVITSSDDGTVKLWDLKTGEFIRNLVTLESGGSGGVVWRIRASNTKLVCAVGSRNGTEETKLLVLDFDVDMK
Sequence (P63208 2-163 partner): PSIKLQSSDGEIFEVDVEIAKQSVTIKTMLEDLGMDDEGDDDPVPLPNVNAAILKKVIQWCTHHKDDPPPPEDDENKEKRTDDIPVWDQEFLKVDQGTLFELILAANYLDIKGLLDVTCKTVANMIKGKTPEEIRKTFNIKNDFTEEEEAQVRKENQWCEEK
Test: FBW7^ARG-cyclin E agonist ALPHAscreen (primary PRUN, confirmation CRUN1, dose-response DRUN)
Type: binding
Conditions: DRUN dose-response, triplicate, 10 point 3-fold dilution, max approx. 87 μM; read-out: FBW7 ACT Final EC50, Molar
Quantity kind: EC50

Some molecules with known EC50 results, for comparison:
CCN1C(=O)c2cccc3c(N4CCCC4)ccc(c23)C1=O ... > 65.3 µM
CCSCCOC(=O)C1=C(C)NC2=C(C(=O)CC(c3ccccc3)C2)C1c1ccc(OC)cc1OC (stereo not drawn) ... > 41.4 µM
Cn1nc(CC(=O)Nc2ccc(F)c(Cl)c2)c2ccccc2c1=O ... > 85 µM
CC(NC(=O)c1cnc2ccccn12)c1ccc(F)cc1 (stereo not drawn) ... > 65.3 µM
C/C(=N\Nc1cccc(C(F)(F)F)c1)C1CC1 ... > 75.4 µM

Could you now look at the following molecule, please?
Please fill in: EC50 reported for CCCOC(=O)C1=C(C)N(CC)C(=O)NC1c1ccccc1[N+](=O)[O-] (stereo not drawn) = > 67.2 µM
